molecular target: human ether-à-go-go-related gene (hERG) potassium channel (human); assay: primary screen, population patch clamp on CHO cells stably expressing hERG; higher = less effect of the substance;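 also: peak tail current of the secondary pulse compared with the same well before compound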
Sequence (Q12809 whole entry, looked up): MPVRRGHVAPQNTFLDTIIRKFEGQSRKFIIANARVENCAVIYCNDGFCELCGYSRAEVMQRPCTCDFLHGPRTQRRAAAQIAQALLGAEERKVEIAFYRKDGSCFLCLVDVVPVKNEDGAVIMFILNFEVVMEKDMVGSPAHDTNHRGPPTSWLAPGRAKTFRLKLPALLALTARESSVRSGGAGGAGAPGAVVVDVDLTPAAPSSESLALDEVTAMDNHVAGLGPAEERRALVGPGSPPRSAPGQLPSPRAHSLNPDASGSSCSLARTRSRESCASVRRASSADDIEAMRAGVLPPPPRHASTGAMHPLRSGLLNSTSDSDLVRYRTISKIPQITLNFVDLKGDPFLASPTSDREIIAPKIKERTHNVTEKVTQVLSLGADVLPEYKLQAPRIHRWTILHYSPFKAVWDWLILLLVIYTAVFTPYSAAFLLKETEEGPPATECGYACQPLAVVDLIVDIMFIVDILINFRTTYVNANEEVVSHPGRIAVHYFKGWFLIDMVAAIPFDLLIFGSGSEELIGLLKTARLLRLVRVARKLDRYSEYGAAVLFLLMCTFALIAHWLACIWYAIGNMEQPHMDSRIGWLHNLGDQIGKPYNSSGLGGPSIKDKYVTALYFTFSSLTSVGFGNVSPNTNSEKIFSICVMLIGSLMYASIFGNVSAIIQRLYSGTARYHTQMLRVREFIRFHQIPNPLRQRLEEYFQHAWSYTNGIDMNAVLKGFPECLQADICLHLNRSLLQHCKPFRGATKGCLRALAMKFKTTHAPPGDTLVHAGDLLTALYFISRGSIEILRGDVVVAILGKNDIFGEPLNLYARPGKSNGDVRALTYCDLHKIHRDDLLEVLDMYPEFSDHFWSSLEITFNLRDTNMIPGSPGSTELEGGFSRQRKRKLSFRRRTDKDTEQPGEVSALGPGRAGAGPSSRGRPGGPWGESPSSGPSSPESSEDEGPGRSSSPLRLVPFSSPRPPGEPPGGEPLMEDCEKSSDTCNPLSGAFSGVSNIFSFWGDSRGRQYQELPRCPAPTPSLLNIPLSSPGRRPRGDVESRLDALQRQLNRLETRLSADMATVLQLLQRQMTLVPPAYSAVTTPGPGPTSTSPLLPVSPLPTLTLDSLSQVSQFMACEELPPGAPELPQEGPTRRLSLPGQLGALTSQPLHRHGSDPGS
Out of some 310,000 compounds screened, about 14,000 (4.5%) showed an effect of 50% or more. Effects have a minus sign here. Many of the other results were omitted from the sample, so strong results are more common in it than they were.
quantity measured: hERG current change (%, negative = inhibition) at 10uM (%)
Write it as a number; the unit % goes unstated.

Data request: # hERG current change (%, negative = inhibition) at 10uM lookup, item C=CCOc1ccc(/C=N/NC(=O)CN2CCCCC2)cc1OC
Data returned: -61

Data request: // same read-out, input: COC(=O)c1cc(NS(=O)(=O)c2cccc(Cl)c2)ccc1N1CCOCC1
Data returned: 2.66

Data request: // same read-out, input: C=CCOc1ccc(/C=N/NC(=O)C(=O)N2CCCCCC2)cc1OC
Data returned: 16.5

Data request: // same read-out, input: COc1ccc(C2(C(=O)NCCCN(C)C)CCOCC2)cc1
Data returned: 7.45

Data request: // same read-out, input: CCOc1cc(/C=N/NC(=O)CN2CCOCC2)ccc1OCc1ccccc1
Data returned: -9.58

Data request: // same read-out, input: CN1CCCN(c2ccc([N+](=O)[O-])cc2)CC1
Data returned: -66

Data request: // same read-out, input: CCc1c(C(=O)Nc2cc(C)cc(C)c2)[nH]c(C)c1C(C)=O
Data returned: 12.7

Data request: // same read-out, input: O=C(OCC(=O)N1CCN(c2ccccc2)CC1)c1cccc([N+](=O)[O-])c1
Data returned: -28.2

Data request: // same read-out, input: C=CCOc1ccc(/C=N/NC(=O)CN2CCOCC2)cc1OCC
Data returned: 12.4

Data request: // same read-out, input: CCC(=O)Nc1ccc(S(=O)(=O)Nc2ccc(Cl)nn2)cc1.Cl
Data returned: 11.7

Data request: // same read-out, input: COc1cc(/C=N/NC(=O)CN2CCCCC2)ccc1OCc1ccccc1
Data returned: -64.1

Data request: // same read-out, input: CCOC(=O)C1CCN(C(=O)COc2ccc(Br)cc2)CC1
Data returned: -32.1

Data request: // same read-out, input: CCOc1ccc(/C=N/NC(=O)CN2CCCCC2)cc1OCC
Data returned: 11

Data request: // same read-out, input: O=C(CN1CCCCC1)N/N=C/c1ccccc1OCc1ccccc1
Data returned: -30.2

Data request: // same read-out, input: CCOC(=O)C1CCN(C(=O)COc2ccc([N+](=O)[O-])cc2)CC1
Data returned: -60.8

Data request: // same read-out, input: CN1CCCN(c2ccc([N+](=O)[O-])nc2)CC1
Data returned: 2.45

Data request: // same read-out, input: COc1cc(/C=N/NC(=O)CN2CCOCC2)ccc1OCc1ccccc1
Data returned: 5.45

Data request: // same read-out, input: ONC(=Nc1ccccc1)c1ccccc1Cl
Data returned: 2.37

Data request: // same read-out, input: CCOc1cc(/C=N/NC(=O)CN2CCCCC2)ccc1OCc1cccc(Cl)c1
Data returned: -45.3

Data request: // same read-out, input: CCOc1cc(/C=N/NC(=O)CN2CCCCC2)ccc1O
Data returned: -5.51

Data request: // same read-out, input: COc1cc2c(cc1OC)CN(c1ccc([N+](=O)[O-])c(C(F)(F)F)c1)CC2
Data returned: -8.39

Data request: // same read-out, input: CCn1c2ccccc2c2cc(/C=N/O)ccc21
Data returned: 40.6
